Tested on: UACC-62 melanoma
Assay: NCI-60 one-dose screen, 48 h (100 = growth as untreated, 0 = no growth, -100 = all killed)
Conditions: 10 µM unless noted
This is part of a sample that, as a whole, favours compounds with a hit. Of some 83,000 tested, about 20% had one in any assay.
observable: growth (%)
Report as a plain number; the unit % is understood.

Below, each entry is followed by its recorded growth result.
In [3]: df
Out[3]:
                                   compound  unitlabel  observedresult
0  O=C(NCCc1ccccn1)OCc1nc2nc(Cl)nc(N3CCOCC3)c2[nH]1          %            24.6
1  FC(F)(F)c1cccc(Oc2ccc(Nc3ncnc4ccc(OCCCN5CCOCC5)cc34)cc2Cl)c1          %            76.1
2            CC(C)(C#N)N1CCN(c2ccccc2Cl)CC1          %             112
3  COc1ccc(OC)c(/C=C/[C@H]2O[C@@H](C)[C@H](O)[C@@H]2O)c1          %             100
4  COc1cc(C2NC(c3cc(OC)c(OC)c(OC)c3)C(C#N)(C#N)C2(C#N)C#N)cc(OC)c1OC (stereo not given)          %            98.2
5  O=C(N/N=C/c1cccnc1)c1ccccc1Nc1cccc(C(F)(F)F)c1          %             102
6             Cc1ccccc1C(c1ccccc1)c1ccccc1C          %             100
7  O=C1NC(=O)C(=Cc2cn(Cc3ccccn3)c3ccccc23)C(=O)N1          %            85.7
8  CN1CCN(c2c(F)cc(NC3=C(Cl)C(=O)c4ncccc4C3=O)cc2F)CC1          %             100

// below: growth requested for another compound
Qu. What value of growth has been reported for the following compound? Cc1nn(-c2ccccc2)c(N2CCOCC2)c1/C=N/N=c1\sc2ccccc2n1C
Ans. 71.1

====

Reported growth values for a set of compounds
Tested on: UACC-257 melanoma
Assay: NCI-60 one-dose screen, 48 h (100 = growth as untreated, 0 = no growth, -100 = all killed)
Details: 10 µM unless noted
Compounds without any hit were thinned out: in the full panel of roughly 83,000, 20% have a hit.
Report as a plain number; the unit % is understood.

Below, each entry is followed by its recorded growth result.
                                   compound  unitlabel  observedresult
0  CC(=O)N1c2ccccc2NC2=C(C(=O)N(C)C2(C)C)C1C (stereo not given)          %            36.4
1  O=c1[nH]nc(-c2ccc(Br)cc2)cc1Cc1ccc(O)cc1          %             106
2  COc1ccc(-c2nc(N/N=C/c3ccco3)nc(N3CCOCC3)c2C#N)cc1          %            94.8

Qu. Param readout= growth; system= UACC-257 melanoma; entry= Cc1ccc(C2C3CC4CCCCC4N3[C@@]3(C(=O)Nc4cc(Cl)ccc43)C2C(=O)c2nc3ccccc3[nH]2)cc1 (stereo not given in full) ; returns value.
Ans. 35.1

Qu. Param readout= growth; system= UACC-257 melanoma; entry= COc1cc2nc(-c3ccc(C(F)(F)F)cc3)cc(OCCCN3CCC(O)CC3)c2cc1OC ; returns value.
Ans. -8.17

Qu. Param readout= growth; system= UACC-257 melanoma; entry= O=CNc1cc(Cl)cc(Cl)c1 ; returns value.
Ans. 97.4
